Assay: Human HepG2 cell viability assay in 384 well format
Type: toxicity, cell-based
Set-up: dose 125 nL, time 70.5 hour; concentration not given beside the values
Details: HepG2 cells, read-out: Inhibition
What cytotoxicity at 70.5 h was measured for each of the following?
Numbers only, in %.

Report cytotoxicity at 70.5 h for every entry below.
1. CCc1cnc(N2CCC3(CCN(CC)C3=O)CC2)nc1
2. COC[C@H]1CCC[C@]12CN(CCc1ccccc1)CCO2
3. COc1ccc(CCNCc2ccco2)cc1OC
4. Cc1cc(C)cc(-c2ccc(CC3(C(=O)O)CCOCC3)cc2)c1

Data returned:
1: -4.14; 2: -15.8; 3: -6.05; 4: 31.5

* * *

Test: Human HepG2 cell viability assay in 384 well format
Format: toxicity, cell-based
Parameters: dose 125 nL, time 70.5 hour; concentration not given beside the values
Conditions: HepG2 cells, read-out: Inhibition
attribute-measured: cytotoxicity at 70.5 h (%)
Numbers only, in %.

CC(C)CNc1cc(-c2c[nH]nc2C2CCN(C(=O)C3CC3)C2)ccn1 (stereo not drawn)
95.1
Cc1nc(C)n(CC2CN(Cc3cscn3)CCO2)n1 (stereo not drawn)
-6.91
CCCS(=O)(=O)N1CCC(c2ccc(OC)cc2)CC1
-5.25
Cn1cnnc1C1CCN(c2nc3ccccc3o2)CC1
-5.83
O=C(C1CCCO1)N1CCC2(CC1)COCCN(Cc1ccncc1)C2 (stereo not drawn)
-9.52

Batch request: cytotoxicity at 70.5 h for each of the following molecules.
1. Cc1cc(Br)c(O)c(C(=O)N2CCC(CN3CCCCCC3)CC2)c1
2. Cc1ccc(N2CC[C@H]3OCC[C@@]3(C(=O)N(C)C)C2)nn1
3. Cn1cnc(C(=O)N2CC3(CCN(S(=O)(=O)c4ccccc4)C3)C2)c1

Data returned:
[-5.82, -8.34, -7.62]

Below are some molecules; for each one, tell me its cytotoxicity at 70.5 h.
1. Cc1oc(NC(=O)C(C)N2CCN(C(C)(C)CO)CC2)c(C#N)c1C (stereo not drawn)
2. CN(C)C(C(=O)NC1(CO)CCCC1)c1ccc(F)cc1 (stereo not drawn)
3. CCc1c(C(=O)O)nnn1-c1ccc(C)cc1C
4. Fc1ccc(CCC2CCCN(Cc3c[nH]cn3)C2)c(F)c1 (stereo not drawn)
5. CN(CCCNc1cc(N2CCCC2CO)ncn1)S(C)(=O)=O (stereo not drawn)

Data returned:
-4.43
6.65
-17.4
-3.29
11.1

Below are some molecules; for each one, tell me its cytotoxicity at 70.5 h.
1. Cc1nc(C(C)C)cc(N2CCC3(CCC(=O)N(CC4CC4)C3)CC2)n1
2. O=c1c2cnc(N3CCCC3)nc2ccn1-c1cccc(C(F)(F)F)c1

Data returned:
1: -11; 2: -5.84

* * *

Experiment: Human HepG2 cell viability assay in 384 well format
Type: toxicity, cell-based
Design: dose 125 nL, time 70.5 hour; concentration not given beside the values
Conditions: HepG2 cells, read-out: Inhibition
attribute-measured: cytotoxicity at 70.5 h (%)
Give bare numbers, in %.

CS(=O)(=O)NC1CCCN(C(=O)NCc2cccc(F)c2)C1 (configuration not stated)
-4.51
CCS(=O)(=O)N1CCC2(CC(=O)N(c3cncnc3)C2)C1 (configuration not stated)
-3.21
COCCC1CCN(CC(C)n2cnc3ccccc32)CC1 (configuration not stated)
-17.3
CC(C)n1cc(CN2CCCN(C(=O)c3nccnc3N)CC2)cn1
7.08
c1csc(CN2CCC3(CC2)CCN(CC2CCOCC2)C3)n1
0.161
CCS(=O)(=O)N1CCc2c(cccc2NC(=O)NCCOC)C1
-1.31

Give cytotoxicity at 70.5 h for each listed item.
1. Cc1ccc2cc(C(=O)N3CCN(S(C)(=O)=O)CC3)[nH]c2c1
2. O=S1(=O)CCC(n2cc(CNCC3(c4ccccc4)CC3)cn2)C1 (configuration not stated)

Data returned:
1. 12.7
2. 30.7

List the reported cytotoxicity at 70.5 h of each molecule below.
1. COc1cc(N2C[C@@H]3COC[C@]3(C(=O)NC3CC(F)(F)C3)C2)ncn1
2. Cc1nc(N2CCCC2)nc2c1CCN(C(=O)NC(C)C)CC2
3. N#Cc1cccnc1NCc1ccc(S(=O)(=O)NC2CC2)cc1
4. Cc1cc(CNC(=O)N(Cc2ccc(F)cc2F)C2CC2)no1
5. CC(C)C(NC(=O)NCCNc1cnccn1)c1cccs1 (configuration not stated)
6. COc1cccc(CN2CCN3C(=O)NC[C@H]3C2)n1

Data returned:
1. -4.63
2. 30.9
3. -17.8
4. 15.5
5. -11.6
6. -7.27

For each of the items listed, what is its cytotoxicity at 70.5 h?
1. O=C(CCn1cc(Cl)cn1)N1C[C@@H]2CC[C@H](C1)N(Cc1ccccn1)C2
2. O=C(NCC(O)Cc1ccccc1)c1ccc2[nH]c(=O)[nH]c2c1 (configuration not stated)
3. CCOCCN1CCN(Cc2nc(CC(C)C)no2)CC1
4. CCN(CC1CN(Cc2nc(C3CC3)no2)CCO1)c1cccnn1 (configuration not stated)
5. O[C@@H]1CN(c2cnc3ccccc3n2)CC[C@H]1c1ccc2c(c1)OCO2
6. O=C1COc2cc(C(=O)NS(=O)(=O)c3ccc(F)cc3F)ccc2N1

Data returned:
[-11.7, -6.14, 1.47, -16.6, 21, -13.6]

* * *

Experiment: Human HepG2 cell viability assay in 384 well format
Format: toxicity, cell-based
Set-up: dose 125 nL, time 70.5 hour; concentration not given beside the values
Conditions: HepG2 cells, read-out: Inhibition
attribute-measured: cytotoxicity at 70.5 h (%)
Give bare numbers, in %.

// below: answered molecules
O=C(NCCN1CCCCCC1=O)Nc1cccnc1-n1cccn1
23.5
O=C(O)c1c[nH]c2cc(NS(=O)(=O)c3cccc(Cl)c3F)ccc12
-10.1
CN(C)c1nc(CNC(=O)NC2CCc3ccccc32)cs1 (stereo not given)
-0.66
CN(C)c1ccc(C(=O)N2CCN(Cc3cscn3)CC2)cc1F
-8.39

# per-item lookup of cytotoxicity at 70.5 h; items listed below
1. CC(C)C[C@H](NC(=O)N1CCC(Cc2ccccc2)CC1)C(=O)O
2. Cc1cnn(CCNCC(=O)NCCOc2ccc(Cl)cc2)c1
3. O=C(NCC1CCC2(CCNCC2)O1)C1CC1 (stereo not given)
4. COc1ncccc1C(=O)NC1CCOc2ccccc21 (stereo not given)
5. CCC(=O)N1CCc2c(O)nc(C3CCCCN3C(=O)C3CC3)nc2C1 (stereo not given)

Data returned:
1: -5.66; 2: -13; 3: 2.18; 4: -6.62; 5: -3.59

* * *

Experiment: Human HepG2 cell viability assay in 384 well format
Assay type: toxicity, cell-based
Set-up: dose 125 nL, time 70.5 hour; concentration not given beside the values
Conditions: HepG2 cells, read-out: Inhibition
attribute-measured: cytotoxicity at 70.5 h (%)
One number for each entry, in %.

O=C(c1cccc(CNC/C=C/c2ccccc2)c1)N1CCCC1
4.26

Please supply cytotoxicity at 70.5 h for each of the following items, keeping them in order.
1. CCc1ncc(S(C)(=O)=O)c(C2CCCNC2)n1 (stereo not drawn)
2. COC(=O)c1cc2c(=O)n(C3CCCC3)ccc2nc1C

Data returned:
[-5.94, -15.4]

* * *

Assay: Human HepG2 cell viability assay in 384 well format
Format: toxicity, cell-based
Design: dose 125 nL, time 70.5 hour; concentration not given beside the values
Details: HepG2 cells, read-out: Inhibition
Please provide measured cytotoxicity at 70.5 h for the entries that follow.
Give bare numbers, in %.

Before answering, review these 3 worked examples.
CC(C)N1[C@H](Cn2cccn2)C[C@@H]2CN(C3CCOCC3)CC[C@@H]21
-1.14
O=C(NC1CC1)C1CCN(Cn2nc(-c3ccccc3)oc2=O)CC1
25.1
CN(C)CCN1C(=O)C2(CCN(CC3CC3)CC2)c2ccccc21
-4.59

For every item below, please supply its cytotoxicity at 70.5 h.
1. NC(=O)CN(CC(=O)NCc1cc(F)cc(F)c1)C1CCCC1
2. O=C(NC1CCCCC1)N1CCC(N2Cc3ncccc3C2=O)CC1
3. COCCCNC(=O)CN(C)C(=O)c1cc(C)ccc1O
4. Cc1nc(C2CCCN(C(=O)c3ccc(N4CCCC4)nc3)C2)no1 (stereo not given)
5. COc1cc(C(=O)NCC2CC2)nc2c(C)cc(F)cc12
6. CCN(C(=O)CN1CCCC1c1cc(C)no1)c1ccccc1C (stereo not given)
7. COc1ccccc1NCC(=O)Nc1cnn(Cc2ccccn2)c1
8. O=C(NC1(c2nccs2)CCCC1)c1cc(C2CC2)[nH]n1

Data returned:
-10.9
-13.7
-9.64
1.03
-4.75
-6.07
-3.02
-2.38

* * *

Experiment: Human HepG2 cell viability assay in 384 well format
Assay type: toxicity, cell-based
Parameters: dose 125 nL, time 70.5 hour; concentration not given beside the values
Conditions: HepG2 cells, read-out: Inhibition
attribute-measured: cytotoxicity at 70.5 h (%)
Answers are plain numbers, in %.

CCOCCCC(=O)NS(=O)(=O)c1ccc(C)s1
-0.611
CC(C)OCCC1CCCCN1S(C)(=O)=O (stereo unspecified)
-8.81
CCc1ncc(CN(C)C2CCN(C(C)C)CC2)cn1
13.4
COc1cccc2c1OCC(C(=O)NCCCn1nc(C)c(Cl)c1C)C2 (stereo unspecified)
-7.76
CCN(Cc1ccccc1)C(=O)CCN1C[C@@H](C(=O)O)[C@H](C2CC2)C1
-8.23

List the reported cytotoxicity at 70.5 h of each compound below.
1. CS(=O)(=O)c1cccc(C(N)c2ccc(F)c(F)c2)c1 (stereo unspecified)
2. CN(C)C(=O)c1nc(CN2CC(c3ccccc3)CC2=O)no1 (stereo unspecified)
3. Cc1cnccc1CN1CCN(C)C2(CCC(=O)N(CC3CC3)CC2)C1 (stereo unspecified)
4. COc1cc(NC(=O)NCCO)ccc1N1CCOC1=O
5. CC(C)c1nnc(CN(C)C(c2ccc(F)cc2)c2cccnc2)o1 (stereo unspecified)
6. COc1ccc(CCC(=O)N(C)CCN2CCOCC2)cc1OC
7. Cc1ccc(C(NCC(=O)N2CCNC(=O)C2)C(F)(F)F)cc1 (stereo unspecified)
8. Cc1nnc(N2C[C@H](OCc3cccnc3)[C@H]3OCCC[C@H]32)s1

Data returned:
-4.97
10.4
-1.45
-6.58
-2.85
-7.02
-113
10
